Target or test system: catalytic kinase (JH1) domain of human JAK2 (Homo sapiens, UniProt O60674)
Construct: Catalytic activities of recombinant JAK2, JAK3 and TYK2 kinase domain
Sequence (O60674 849-1124 limits assumed): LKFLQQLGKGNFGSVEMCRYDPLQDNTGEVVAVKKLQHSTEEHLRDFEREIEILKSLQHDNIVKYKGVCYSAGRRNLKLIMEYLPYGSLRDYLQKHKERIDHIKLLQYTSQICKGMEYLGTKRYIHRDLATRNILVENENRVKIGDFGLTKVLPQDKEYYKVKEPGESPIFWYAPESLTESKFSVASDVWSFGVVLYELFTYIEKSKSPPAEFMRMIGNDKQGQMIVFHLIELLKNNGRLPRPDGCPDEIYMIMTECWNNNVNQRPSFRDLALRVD
Test name: ADP-Glo kinase assay, JAK2 kinase domain
Assay type: biochemical
pIC50: −log10 of the molar value.
Label fulfilled when pIC50 is at or above 7; otherwise label not fulfilled.

Some solved entries appear below for comparison.
COc1cc(-c2cc3c(N4CC5CCC(C4)N5C4CC(C#N)C4)ccnc3[nH]2)ccn1 (stereo not shown) [Example 13]	fulfilled
Cn1cc(-c2cn3nccc(N4CC5CCC(C4)N5[C@H]4C[C@@H](C#N)C4)c3n2)cn1 [Example 65]	not fulfilled
Cn1cc(-c2cc3c(N4CC5CCC(C4)N5[C@H]4C[C@@H](S(C)(=O)=O)C4)ccnn3c2)cn1 [Example 36]	not fulfilled
Cn1cc(-c2cn3nccc(N4CC5CCC(C4)N5[C@H]4C[C@H](C#N)C4)c3n2)cn1 [Example 66]	fulfilled
Cn1cc(-c2cc3c(N4CC5CCC(C4)N5[C@H]4CCC45COC5)ccnn3c2)cn1 (single isomer, unassigned) [Example 40]	not fulfilled

Is the recorded value of pIC50 equal to or greater than 7 for this compound? Cn1cc(-c2cc3c(N4CC5CCC(C4)N5[C@@H]4CCC45COC5)ccnn3c2)cn1 (single isomer, unassigned) [Example 41]
not fulfilled
